Entry source: PubChem BioAssay (NCI)

Would you kindly list growth for each of these compounds?
test system: SR leukemia; test: NCI-60 one-dose screen, 48 h (100 = growth as untreated, 0 = no growth, -100 = all killed); details: 10 µM
Compounds without any hit were thinned out: in the full panel of roughly 83,000, 20% have a hit.
Please reply with the bare figure in % and do not write the unit itself.

Ask: Given CNS(=O)(=O)Oc1ccc(-c2ccc3occc3c2)cc1 , report its growth on SR leukemia.
Reply: 111

Ask: Given COc1cc(/C=C2\CCCC3=C2N=C2SC(C)=CN2C3c2cc(OC)c(OC)c(OC)c2)cc(OC)c1OC (stereo not drawn) , report its growth on SR leukemia.
Reply: 0.0832

Ask: Given CC(=O)Nc1ccc2c(c1)C(=O)c1cccc(C(=O)O)c1-2 , report its growth on SR leukemia.
Reply: 123
